This collection of values is drawn from the supplement of paper PMC10567573.

B1: PHTF1 (parent)
chain: RVKLISNKGTETDNDPSCVHPIIK

- Variants of: B1
- assay.name: protein stability index of a GFP-peptide fusion (GPS, HEK-293T) (PSI 1-6); higher = more stable;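 also: lentivirally expressed fusions sorted by FACS into six bins by GFP to DsRed ratio, PSI derived from sequencing read proportions per bin multiplied by bin number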
- test.context: c terminus: a fixed tail appended
Record form. Attribute: protein stability index. Fill in for each entry.

Qu. Would you kindly share the measured protein stability index for RVKVISNKGTETDNDPSCVHPIIK ?
Ans. 3.86

Qu. Would you kindly share the measured protein stability index for RVKLISNKGTEMDNDPSCVHPIIK ?
Ans. 3.44

Qu. Would you kindly share the measured protein stability index for RVKPISNKGTETDNDPSCVHPIIK ?
Ans. 4.82

Qu. Would you kindly share the measured protein stability index for RVKLISNKGTELDNDPSCVHPIIK ?
Ans. 3.61

Qu. Would you kindly share the measured protein stability index for RVKLISNKGTETDNYPSCVHPIIK ?
Ans. 3

Qu. Would you kindly share the measured protein stability index for RVKLISNKTTETDNDPSCVHPIIK ?
Ans. 4.27

Qu. Would you kindly share the measured protein stability index for RVFLISNKGTETDNDPSCVHPIIK ?
Ans. 3.29

Qu. Would you kindly share the measured protein stability index for RVKLISNKGTETDNDPSEVHPIIK ?
Ans. 4.85

Qu. Would you kindly share the measured protein stability index for RVKLISNKGTETDNAPSCVHPIIK ?
Ans. 3.8

Qu. Would you kindly share the measured protein stability index for RVKLISNKKTETDNDPSCVHPIIK ?
Ans. 3.98

Qu. Would you kindly share the measured protein stability index for RKKLISNKGTETDNDPSCVHPIIK ?
Ans. 4.6

Qu. Would you kindly share the measured protein stability index for RVKLISNKGTETINDPSCVHPIIK ?
Ans. 3.24

Qu. Would you kindly share the measured protein stability index for QVKLISNKGTETDNDPSCVHPIIK ?
Ans. 4.45

Qu. Would you kindly share the measured protein stability index for RVKLISNKCTETDNDPSCVHPIIK ?
Ans. 3.56

Qu. Would you kindly share the measured protein stability index for RVKCISNKGTETDNDPSCVHPIIK ?
Ans. 4.48

Qu. Would you kindly share the measured protein stability index for RVKLISNKGTETDNDPSCIHPIIK ?
Ans. 3.84

Qu. Would you kindly share the measured protein stability index for RVKLISNKGTETDNDPSCVHPIMK ?
Ans. 4.19

Qu. Would you kindly share the measured protein stability index for RVNLISNKGTETDNDPSCVHPIIK ?
Ans. 4.32

Qu. Would you kindly share the measured protein stability index for RVKLISNKGTETDNDPSCVAPIIK ?
Ans. 4.3

Qu. Would you kindly share the measured protein stability index for RVKLISNKGTETDNDPSCVHPIHK ?
Ans. 4.74

Qu. Would you kindly share the measured protein stability index for RVKLISNKGTETDNDPSCTHPIIK ?
Ans. 4.36

Qu. Would you kindly share the measured protein stability index for RVKLISNKGTETDNDPSCVHYIIK ?
Ans. 3.4
